tested-system: Plasmepsin II (Plasmodium falciparum, UniProt P46925)
Sequence (P46925 whole entry): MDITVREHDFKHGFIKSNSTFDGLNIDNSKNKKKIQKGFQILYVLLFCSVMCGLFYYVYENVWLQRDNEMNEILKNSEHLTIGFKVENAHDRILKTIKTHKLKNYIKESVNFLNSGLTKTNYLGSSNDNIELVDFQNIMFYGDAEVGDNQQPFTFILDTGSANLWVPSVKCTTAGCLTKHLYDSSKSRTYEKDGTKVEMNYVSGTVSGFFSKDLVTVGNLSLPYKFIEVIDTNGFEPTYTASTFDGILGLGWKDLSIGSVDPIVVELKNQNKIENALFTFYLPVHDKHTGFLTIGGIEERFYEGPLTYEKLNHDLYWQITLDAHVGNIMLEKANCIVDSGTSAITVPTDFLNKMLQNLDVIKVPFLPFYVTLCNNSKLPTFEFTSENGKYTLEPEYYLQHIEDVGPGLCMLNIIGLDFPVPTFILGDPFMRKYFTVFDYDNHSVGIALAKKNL
observation-type: IC50 (nM)

cpd-smiles | IC50 [nM]
CCCCCc1ccc(C(=O)N(CCN(CCCC)CCCC)Cc2ccc(-c3cccnc3)nc2)cc1 | 587

[I] CCCCCc1ccc(C(=O)N(CCN(CCCC)CCCC)Cc2ccc(-c3ccncc3)nc2)cc1
[II] CCCCCc1ccc(C(=O)N(CCN(CCCC)CCCC)Cc2ccc(NC(=O)c3ccnc(OC)c3)cc2)cc1
[III] CCCCCc1ccc(C(=O)N(CCN(CCO)Cc2ccccc2)Cc2ccc(-c3ccc4c(c3)OCO4)cc2)cc1
Data request: Rank descending by IC50. Use the labels to give the requested order.
Data returned: I, III, II
(I: 642 nM, III: 334 nM, II: 154 nM)
